Ratio reference
Target desc: Steroid 17-alpha-hydroxylase/17,20 lyase (Homo sapiens, UniProt P05093)
Sequence (P05093 whole entry): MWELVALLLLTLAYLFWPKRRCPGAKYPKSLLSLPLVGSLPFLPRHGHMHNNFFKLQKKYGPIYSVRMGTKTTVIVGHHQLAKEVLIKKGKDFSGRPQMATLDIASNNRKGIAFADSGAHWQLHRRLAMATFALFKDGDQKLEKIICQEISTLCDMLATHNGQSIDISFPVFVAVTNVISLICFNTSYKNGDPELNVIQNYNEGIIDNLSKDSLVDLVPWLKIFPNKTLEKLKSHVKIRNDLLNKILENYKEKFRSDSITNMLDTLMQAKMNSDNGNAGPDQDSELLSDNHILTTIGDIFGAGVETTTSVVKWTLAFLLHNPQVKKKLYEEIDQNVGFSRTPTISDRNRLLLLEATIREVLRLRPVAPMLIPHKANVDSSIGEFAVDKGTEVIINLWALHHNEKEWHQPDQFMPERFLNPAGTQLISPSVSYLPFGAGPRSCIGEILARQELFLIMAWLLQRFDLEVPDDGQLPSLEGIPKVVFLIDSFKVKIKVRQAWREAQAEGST
Test summary: Selectivity ratio for inhibition of human CYP17A1 hydroxylase activity to inhibition of human CYP17A1 lyase activity
Type: ADME
Readout type: Ratio

molecular_string=Cc1ccncc1-c1ccnc2c1cnn2-c1ccc(F)cc1 readout_type=Ratio observed_measurement=43
molecular_string=COc1c(F)cccc1-n1ncc2c(-c3cnccc3C)ccnc21 readout_type=Ratio observed_measurement=7
molecular_string=Cc1ccncc1-c1ccnc2c1cnn2-c1ccc(F)c(Cl)c1 readout_type=Ratio observed_measurement=10
molecular_string=Cc1ncncc1-c1ccnc2c1cnn2-c1ccc(F)cc1 readout_type=Ratio observed_measurement=4
molecular_string=Fc1ccc(-n2ncc3c(-c4cncnc4N4CC(F)(F)C4)ccnc32)cc1 readout_type=Ratio observed_measurement=3
molecular_string=Cn1cncc1-c1ccnc2c1cnn2-c1ccc(F)cc1 readout_type=Ratio observed_measurement=30
molecular_string=COc1ccncc1-c1ccnc2c1cnn2-c1ccc(F)cc1 readout_type=Ratio observed_measurement=10
molecular_string=Nc1ncncc1-c1ccnc2c1cnn2-c1ccc(F)cc1 readout_type=Ratio observed_measurement=11
molecular_string=Nc1ncncc1-c1ccnc2c1cnn2-c1ccc(F)cc1F readout_type=Ratio observed_measurement=6
molecular_string=Fc1ccc(-n2ncc3c(-c4cncnc4C4CC4)ccnc32)cc1 readout_type=Ratio observed_measurement=13
molecular_string=Nc1ncncc1-c1ccnc2c1cnn2-c1c(F)cc(F)cc1F readout_type=Ratio observed_measurement=3
molecular_string=Fc1ccc(-n2ncc3c(-c4cncn5cccc45)ccnc32)cc1 readout_type=Ratio observed_measurement=13

###

Test summary: Metabolic stability in human liver microsomes assessed as parent compound remaining relative to control; note: time not given here
Format: ADME, Microsome
Classify as follows. Reported Stability greater than or equal to 80%: Satisfied. Reported Stability below: Not satisfied.

molecular_string=Fc1ccc(-n2ncc3c(-c4cncnc4NCC(F)(F)F)ccnc32)cc1 label_value="Not satisfied"
molecular_string=Nc1ncncc1-c1ccnc2c1cnn2-c1ccc(F)cc1F label_value=Satisfied
molecular_string=Cc1ccncc1-c1cccc2c1OCCN2c1ccccc1 label_value="Not satisfied"
molecular_string=COc1c(F)cccc1-n1ncc2c(-c3cnccc3C)ccnc21 label_value="Not satisfied"

###

Test summary: Metabolic stability in mouse liver microsomes assessed as parent compound remaining; note: time not given here
Assay type: ADME, Microsome
Threshold check on Stability: strictly below 7% is 1.0; on or above 7% is 0.0.

molecular_string=Nc1ncncc1-c1ccnc2c1cnn2-c1ccc(F)cc1C(F)(F)F label_value=0.0
molecular_string=Cc1ccncc1-c1cccc2c(-c3ccccc3)cnn12 label_value=1.0
molecular_string=Cc1ccncc1-c1ccnc2c1cnn2-c1cccc(F)c1 label_value=1.0
molecular_string=Fc1ccc(-n2ncc3c(-c4cncnc4NCC(F)(F)F)ccnc32)cc1 label_value=1.0
molecular_string=Cc1ccncc1-c1ccnc2c1cnn2-c1ccc(F)cc1Cl label_value=0.0
molecular_string=COc1cccc(-n2ncc3c(-c4cnccc4C)ccnc32)c1 label_value=0.0
molecular_string=Cc1ccncc1-c1cccc2c(-c3ccccc3)noc12 label_value=1.0
molecular_string=Fc1ccc(-n2ncc3c(-c4cncnc4N4CC(F)(F)C4)ccnc32)cc1 label_value=0.0
molecular_string=Fc1ccc(-n2ncc3c(-c4cncnc4C(F)(F)F)ccnc32)cc1 label_value=0.0
molecular_string=Fc1ccc(-n2ncc3c(-c4cncnc4C4CC4)ccnc32)cc1 label_value=0.0
molecular_string=Cc1ccncc1-c1ccnc2c1cnn2-c1ccc(F)cc1 label_value=0.0
molecular_string=Nc1ncncc1-c1ccnc2c1cnn2-c1c(F)cc(F)cc1F label_value=0.0
molecular_string=Cc1ccncc1-c1ccnc2c1cnn2-c1ccc(F)cc1F label_value=0.0
molecular_string=Fc1ccc(-n2ncc3c(-c4cncn5cccc45)ccnc32)cc1 label_value=1.0
molecular_string=COc1ccncc1-c1ccnc2c1cnn2-c1ccc(F)cc1 label_value=0.0
molecular_string=Cc1ccncc1-c1ccnc2c1cnn2C(C)(C)C label_value=0.0
molecular_string=Cc1ccncc1-c1ccnn2c(-c3ccccc3)cnc12 label_value=0.0
molecular_string=Cc1ccncc1-c1cccc2c(-c3ccccc3)csc12 label_value=1.0
molecular_string=Cc1ccncc1-c1ccnc2c1cnn2-c1ncccc1Cl label_value=0.0
molecular_string=COc1ccccc1-n1ncc2c(-c3cnccc3C)ccnc21 label_value=1.0
molecular_string=Nc1ncncc1-c1ccnc2c1cnn2-c1ccc(F)cc1F label_value=0.0
molecular_string=Nc1ncncc1-c1ccnc2c1cnn2-c1ncccc1C(F)(F)F label_value=0.0

###

Test summary: Oral bioavailability in cynomolgus monkey at 1 mg/kg
Assay type: ADME, organism-based, Macaca fascicularis
Condition notes: in vivo
Readout type: bioavailability (%)

molecular_string=Nc1ncncc1-c1ccnc2c1cnn2-c1ccc(F)cc1 observed_measurement=100

###

Target desc: Cytochrome P450 2C19 (Homo sapiens, UniProt P33261)
Sequence (P33261 whole entry): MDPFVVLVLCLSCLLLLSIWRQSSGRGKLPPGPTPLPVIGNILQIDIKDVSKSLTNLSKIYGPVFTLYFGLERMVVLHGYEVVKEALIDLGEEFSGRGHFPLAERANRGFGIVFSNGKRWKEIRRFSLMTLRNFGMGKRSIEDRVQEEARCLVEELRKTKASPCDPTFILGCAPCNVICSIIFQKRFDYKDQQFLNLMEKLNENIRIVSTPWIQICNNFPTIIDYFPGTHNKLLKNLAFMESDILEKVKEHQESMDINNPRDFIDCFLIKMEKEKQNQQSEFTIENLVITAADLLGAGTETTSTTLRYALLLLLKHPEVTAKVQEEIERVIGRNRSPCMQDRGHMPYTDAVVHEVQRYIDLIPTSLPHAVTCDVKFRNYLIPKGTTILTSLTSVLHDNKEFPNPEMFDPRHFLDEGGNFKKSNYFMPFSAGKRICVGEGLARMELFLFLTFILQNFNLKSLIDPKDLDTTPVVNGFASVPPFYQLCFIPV
Test summary: Inhibition of recombinant human CYP2C19
Readout type: IC50

molecular_string=Nc1ncncc1-c1ccnc2c1cnn2-c1ccc(F)cc1 readout_type=IC50 observed_measurement="> 40 µM"

###

Test summary: Metabolic stability in human liver microsomes assessed as parent compound remaining relative to control; note: time not given here
Assay type: ADME, Microsome
Stability reference
Readout type: Stability (%)

molecular_string=Fc1ccc(-n2ncc3c(-c4cncn5cccc45)ccnc32)cc1 readout_type=Stability observed_measurement=72
molecular_string=Cn1cncc1-c1ccnc2c1cnn2-c1ccc(F)cc1 readout_type=Stability observed_measurement=100
molecular_string=Cc1ccncc1-c1ccnn2c(-c3ccccc3)cnc12 readout_type=Stability observed_measurement=100
molecular_string=Cc1ccncc1-c1ccnc2c(-c3ccccc3)csc12 readout_type=Stability observed_measurement=65
molecular_string=Cc1ccncc1-c1ccnc2c1cnn2-c1ccc(F)c(Cl)c1 readout_type=Stability observed_measurement=85
molecular_string=Nc1ncncc1-c1ccnc2c1cnn2-c1ccc(F)cc1C(F)(F)F readout_type=Stability observed_measurement=100
molecular_string=Nc1ncncc1-c1ccnc2c1cnn2-c1cccc(S(N)(=O)=O)c1 readout_type=Stability observed_measurement=100
molecular_string=COc1ccccc1-n1ncc2c(-c3cnccc3C)ccnc21 readout_type=Stability observed_measurement=88
molecular_string=Cc1ccncc1-c1ccnc2c1cnn2-c1ccc(F)cc1 readout_type=Stability observed_measurement=100
molecular_string=Cc1ccncc1-c1ccnc2c1cnn2-c1nccs1 readout_type=Stability observed_measurement=64
molecular_string=Cc1ccncc1-c1ccnc2c1cnn2-c1ccc(F)cc1F readout_type=Stability observed_measurement=100
molecular_string=Cc1ccncc1-c1ccnc2c1cnn2-c1cccc(F)c1 readout_type=Stability observed_measurement=76

###

Target desc: Steroid 17-alpha-hydroxylase/17,20 lyase (Macaca fascicularis)
Sequence (Q2XVA1 whole entry): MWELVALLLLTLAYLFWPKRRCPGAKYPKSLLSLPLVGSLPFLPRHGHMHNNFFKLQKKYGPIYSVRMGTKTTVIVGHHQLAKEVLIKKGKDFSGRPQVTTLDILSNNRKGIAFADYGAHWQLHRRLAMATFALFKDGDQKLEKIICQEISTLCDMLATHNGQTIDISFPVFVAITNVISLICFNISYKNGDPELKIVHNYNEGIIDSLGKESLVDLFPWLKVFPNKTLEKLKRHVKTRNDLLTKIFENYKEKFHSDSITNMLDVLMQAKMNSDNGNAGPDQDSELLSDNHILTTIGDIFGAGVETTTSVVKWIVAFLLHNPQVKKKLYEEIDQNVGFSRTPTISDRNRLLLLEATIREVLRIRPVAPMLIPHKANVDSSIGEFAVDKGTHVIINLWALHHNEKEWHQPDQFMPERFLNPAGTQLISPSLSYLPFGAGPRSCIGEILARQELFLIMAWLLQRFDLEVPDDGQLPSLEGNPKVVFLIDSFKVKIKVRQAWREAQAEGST
Test summary: Inhibition of cynomolgus monkey CYP17A1 lyase activity
Format: ADME
pIC50: −log10 of the molar value.
Readout type: pIC50

molecular_string=Nc1ncncc1-c1ccnc2c1cnn2-c1ccc(F)cc1 target_desc="Steroid 17-alpha-hydroxylase/17,20 lyase (Macaca fascicularis)" observed_measurement=8.22

###

Test summary: Half-life in cynomolgus monkey at 1 mg/kg, iv
Assay type: ADME, organism-based, Macaca fascicularis
Condition notes: in vivo
Readout type: half-life (h)

molecular_string=Nc1ncncc1-c1ccnc2c1cnn2-c1ccc(F)cc1 readout_type=half-life unit_abbreviation=h observed_measurement=16

###

Target desc: Steroid 17-alpha-hydroxylase/17,20 lyase (Homo sapiens)
Test summary: Inhibition of human adrenal gland CYP17A1
Format: ADME, tissue-based
pIC50: −log10 of the molar value.
Readout type: pIC50

molecular_string=Nc1ncncc1-c1ccnc2c1cnn2-c1ccc(F)cc1 readout_type=pIC50 observed_measurement=7.52

###

Test summary: Metabolic stability in human liver microsomes assessed as parent compound remaining relative to control; note: time not given here
Type: ADME, Microsome
Threshold check on Stability: strictly below 90% is Fulfilled; on or above 90% is Not fulfilled.

molecular_string=Fc1ccc(-n2ncc3c(-c4cncnc4NC4CC4)ccnc32)cc1 label_value=Fulfilled
molecular_string=Cc1ccncc1-c1ccnc2c1cnn2-c1ccc(F)cc1Cl label_value=Fulfilled
molecular_string=Fc1ccc(-n2ncc3c(-c4cncnc4N4CC(F)(F)C4)ccnc32)cc1 label_value=Fulfilled
molecular_string=Nc1ncncc1-c1ccnc2c1cnn2-c1ncccc1C(F)(F)F label_value="Not fulfilled"

###

Test summary: Metabolic stability in human liver microsome assessed as half-life
Assay type: ADME
Condition notes: liver microsomes
Readout type: half-life

molecular_string=Nc1ncncc1-c1ccnc2c1cnn2-c1ccc(F)cc1 observed_measurement="> 2 h"
